- Target of assay: Dipeptidase 1 (Sus scrofa) (UniProt P22412)
- Sequence (P22412 whole entry, looked up): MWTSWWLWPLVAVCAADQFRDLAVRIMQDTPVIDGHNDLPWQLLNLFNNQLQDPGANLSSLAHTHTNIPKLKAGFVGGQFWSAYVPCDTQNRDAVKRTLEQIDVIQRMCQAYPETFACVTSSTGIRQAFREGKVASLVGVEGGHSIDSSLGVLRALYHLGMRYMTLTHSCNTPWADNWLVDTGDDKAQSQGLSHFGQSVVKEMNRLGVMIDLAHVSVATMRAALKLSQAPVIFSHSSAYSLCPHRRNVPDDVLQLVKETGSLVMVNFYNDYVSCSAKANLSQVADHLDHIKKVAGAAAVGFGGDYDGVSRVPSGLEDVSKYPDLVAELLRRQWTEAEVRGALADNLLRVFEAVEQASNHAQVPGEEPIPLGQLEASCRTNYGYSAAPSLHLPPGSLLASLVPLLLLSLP
- Test protocol: Relative half life of hydrolysis to meropenem by partially purified porcine renal DHP-I was determined
Metric name: Relativity

[
  {
    "Structure as smiles": "C[C@@H](O)[C@H]1C(=O)N2C(C(=O)O)=C(S[C@@H]3CN[C@H](/C=C\\c4cnoc4)C3)[C@H](C)[C@H]12",
    "Endpoint result": 1.84
  }
]

[I] C[C@@H](O)[C@H]1C(=O)N2C(C(=O)O)=C(S[C@@H]3CN[C@H](/C=C/c4ccno4)C3)[C@H](C)[C@H]12
[II] COC(=O)c1cc(/C=C\[C@@H]2C[C@H](SC3=C(C(=O)O)N4C(=O)[C@H]([C@@H](C)O)[C@H]4[C@H]3C)CN2)on1
Which entry has a larger number for Relativity, I or II ? Please indicate the selected item by its label.
I

====

- Tested on: Enterobacter cloacae
- Test protocol: Minimum inhibitory concentration against Enterobacter cloacae 1321E was determined by agar dilution method using Mueller-Hinton
- Assay type: functional
Metric name: MIC (µg/mL)

Previously resolved entries follow.
[
  {
    "Compound": "C[C@@H](O)[C@H]1C(=O)N2C(C(=O)O)=C(S[C@@H]3CN[C@H](C(=O)N(C)C)C3)[C@H](C)[C@H]12 [MEROPENEM]",
    "MIC [µg/mL]": 0.025
  },
  {
    "Compound": "C[C@@H](O)[C@H]1C(=O)N2C(C(=O)O)=C(S[C@@H]3CN[C@H](/C=C/c4cc(CO)no4)C3)[C@H](C)[C@H]12",
    "MIC [µg/mL]": 0.025
  },
  {
    "Compound": "C[C@@H](O)[C@H]1C(=O)N2C(C(=O)O)=C(SCCNC=N)C[C@H]12 [IMIPENEM ANHYDROUS]",
    "MIC [µg/mL]": 0.195
  }
]

[a] C[C@@H](O)[C@H]1C(=O)N2C(C(=O)O)=C(S[C@@H]3CN[C@H](/C=C/c4cc(Cl)no4)C3)[C@H](C)[C@H]12
[b] COC(=O)c1cc(/C=C/[C@@H]2C[C@H](SC3=C(C(=O)O)N4C(=O)[C@H]([C@@H](C)O)[C@H]4[C@H]3C)CN2)on1
[c] C[C@@H](O)[C@H]1C(=O)N2C(C(=O)O)=C(S[C@@H]3CN[C@H](/C=C/c4ccon4)C3)[C@H](C)[C@H]12
Reorder the items by MIC, least to greatest. # respond with the labels, arranged in the requested order
a, b, c
(a: 0.013 µg/mL, b: 0.025 µg/mL, c: 0.049 µg/mL)

====

- Tested on: Staphylococcus aureus
- Test protocol: Minimum inhibitory concentration against Staphylococcus aureus 503 was determined by agar dilution method using Mueller-Hinton
- Format: functional
Metric name: MIC (mg/L)

[a] C[C@@H](O)[C@H]1C(=O)N2C(C(=O)O)=C(S[C@@H]3CN[C@H](/C=C/c4ccno4)C3)[C@H](C)[C@H]12
[b] COC(=O)c1cc(/C=C\[C@@H]2C[C@H](SC3=C(C(=O)O)N4C(=O)[C@H]([C@@H](C)O)[C@H]4[C@H]3C)CN2)on1
[c] COc1cc(/C=C/[C@@H]2C[C@H](SC3=C(C(=O)O)N4C(=O)[C@H]([C@@H](C)O)[C@H]4[C@H]3C)CN2)on1
[d] C[C@@H](O)[C@H]1C(=O)N2C(C(=O)O)=C(S[C@@H]3CN[C@H](/C=C/c4ccon4)C3)[C@H](C)[C@H]12
Task field, ranking: reported MIC, descending order. # respond with the labels, arranged in the requested order
d, c, b, a
